target: hemagglutinin (HA) of influenza A/Japan/305/57 H2N2 (Influenza A virus A/Japan/305/1957 …, UniProt P03451 16-562); experiment: ELISA, inactivated whole virions coated; transfection supernatant set 5
propertyMeasured: OD450 (OD450)

binder="TCN-538 (3206_O17) (antibody, V domains shown) VH: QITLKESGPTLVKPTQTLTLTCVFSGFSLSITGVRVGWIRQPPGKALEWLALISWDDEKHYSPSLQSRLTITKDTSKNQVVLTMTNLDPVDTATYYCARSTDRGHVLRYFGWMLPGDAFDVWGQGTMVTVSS VL: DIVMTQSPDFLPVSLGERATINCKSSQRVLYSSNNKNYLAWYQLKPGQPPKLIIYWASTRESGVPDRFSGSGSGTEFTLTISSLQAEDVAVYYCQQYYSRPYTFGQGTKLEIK" propertymeasured=OD450 valuemeasured=3.37
binder="TCN-560 (5084_P10) (antibody, V domains shown) VH: EVQLVESGGGLVQPGGSLRLSCAASGFIFRNYWMSWVRQAPGKGLEWVANIKQDGREKYYVDSLRGRVNISRDNAENSLYLHMNSLRVEDTAVYFCARARMVVVTGDGFDVWGHGTMVTVSS VL: DIQMTQSPSSLSASVGDRVTITCRASQNIKRYFNWYQQKPGKAPKLLIYAASNLENGVPSRFSGSGSGTDFTLTISSLQPEDFATYYCQQSFSKSWTFGQGTNVDIK" propertymeasured=OD450 valuemeasured=3.55
binder="TCN-546 (5089_L08) (antibody, V domains shown) VH: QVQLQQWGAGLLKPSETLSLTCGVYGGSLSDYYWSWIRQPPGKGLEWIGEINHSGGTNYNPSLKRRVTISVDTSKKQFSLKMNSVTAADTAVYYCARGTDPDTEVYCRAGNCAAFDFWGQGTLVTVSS VL: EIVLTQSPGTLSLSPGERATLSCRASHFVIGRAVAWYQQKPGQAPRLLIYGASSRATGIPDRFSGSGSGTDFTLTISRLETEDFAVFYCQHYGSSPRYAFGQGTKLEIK" propertymeasured=OD450 valuemeasured=0.07
